methodSummary: RNA encapsulation efficiency (modified Quant-iT RiboGreen assay) and loading
Format: physicochemical
measurementConditions: FxNP, siFLuc, DOPC
parameter: Small molecule drug mass % (%)

1. CC12CCC3c4ccc(O)cc4CC(CCCCCCCCCS(=O)(CCCC(F)(F)C(F)(F)F)=NC(=O)CCn4ccnc4)C3C1CCC2O (stereo not shown); 55.7
2. CN(C)CC(=O)N=S(=O)(CCCCCCCCCC1Cc2cc(O)ccc2C2CCC3(C)C(O)CCC3C12)CCCC(F)(F)C(F)(F)F (stereo not shown); 54.3
3. CC12CCC3c4ccc(O)cc4CC(CCCCCCCCCS(=O)(CCCC(F)(F)C(F)(F)F)=NC(=O)Cn4ccnc4)C3C1CCC2O (stereo not shown); 55.4
4. CC12CCC3c4ccc(O)cc4CC(CCCCCCCCCS(=O)(CCCC(F)(F)C(F)(F)F)=NC(=O)CCN4CCCCC4)C3C1CCC2O (stereo not shown); 56.0
5. CC12CCC3c4ccc(O)cc4CC(CCCCCCCCCS(=O)(CCCC(F)(F)C(F)(F)F)=NC(=O)CN4CCCCC4)C3C1CCC2O (stereo not shown); 55.7
6. CC12CCC3c4ccc(O)cc4CC(CCCCCCCCCS(=O)(CCCC(F)(F)C(F)(F)F)=NC(=O)CN4CCOCC4)C3C1CCC2O (stereo not shown); 56.7
7. CC12CCC3c4ccc(O)cc4CC(CCCCCCCCCS(=O)(CCCC(F)(F)C(F)(F)F)=NC(=O)CCN4CCOCC4)C3C1CCC2O (stereo not shown); 56.5

----------
methodSummary: RNA encapsulation efficiency (modified Quant-iT RiboGreen assay) and loading
Format: physicochemical
measurementConditions: FxNP, sinLuc, DOPC
# maps each entry to its Small molecule drug mass %
parameter: Small molecule drug mass % (%)

1) CC12CCC3c4ccc(O)cc4CC(CCCCCCCCCS(=O)(CCCC(F)(F)C(F)(F)F)=NC(=O)CN4CCOCC4)C3C1CCC2O (stereo not shown); 56.1
2) CC12CCC3c4ccc(O)cc4CC(CCCCCCCCCS(=O)(CCCC(F)(F)C(F)(F)F)=NC(=O)CN4CCCCC4)C3C1CCC2O (stereo not shown); 55.7
3) CC12CCC3c4ccc(O)cc4CC(CCCCCCCCCS(=O)(CCCC(F)(F)C(F)(F)F)=NC(=O)CCN4CCOCC4)C3C1CCC2O (stereo not shown); 56.6
4) CC12CCC3c4ccc(O)cc4CC(CCCCCCCCCS(=O)(CCCC(F)(F)C(F)(F)F)=NC(=O)Cn4ccnc4)C3C1CCC2O (stereo not shown); 55.3

----------
methodSummary: Hydrodynamic diameter and polydispersity index by dynamic light scattering
Assay type: physicochemical
measurementConditions: FxNP, siFLuc, DSPC
# maps each entry to its Hydrodynamic diameter (nm)
parameter: Hydrodynamic diameter (nm)

1. CN(C)CC(=O)N=S(=O)(CCCCCCCCCC1Cc2cc(O)ccc2C2CCC3(C)C(O)CCC3C12)CCCC(F)(F)C(F)(F)F (stereo not shown); 147.8
2. CN1CCN(CC(=O)N=S(=O)(CCCCCCCCCC2Cc3cc(O)ccc3C3CCC4(C)C(O)CCC4C23)CCCC(F)(F)C(F)(F)F)CC1 (stereo not shown); 338.6
3. CC12CCC3c4ccc(O)cc4CC(CCCCCCCCCS(=O)(CCCC(F)(F)C(F)(F)F)=NC(=O)CCn4ccnc4)C3C1CCC2O (stereo not shown); 136.0
4. CC12CCC3c4ccc(O)cc4CC(CCCCCCCCCS(=O)(CCCC(F)(F)C(F)(F)F)=NC(=O)CCN4CCOCC4)C3C1CCC2O (stereo not shown); 154.9
